molecular target: 5-HT1A receptor (Homo sapiens); construct: expressed in transfected cells; host or cells: CHO-K1; experiment: Serotonin receptor binding, [3H] 8-OH-DPAT, CHO-K1 membranes; conditions: read-out: 5-HT1A IC50
Sequence (P08908 whole entry): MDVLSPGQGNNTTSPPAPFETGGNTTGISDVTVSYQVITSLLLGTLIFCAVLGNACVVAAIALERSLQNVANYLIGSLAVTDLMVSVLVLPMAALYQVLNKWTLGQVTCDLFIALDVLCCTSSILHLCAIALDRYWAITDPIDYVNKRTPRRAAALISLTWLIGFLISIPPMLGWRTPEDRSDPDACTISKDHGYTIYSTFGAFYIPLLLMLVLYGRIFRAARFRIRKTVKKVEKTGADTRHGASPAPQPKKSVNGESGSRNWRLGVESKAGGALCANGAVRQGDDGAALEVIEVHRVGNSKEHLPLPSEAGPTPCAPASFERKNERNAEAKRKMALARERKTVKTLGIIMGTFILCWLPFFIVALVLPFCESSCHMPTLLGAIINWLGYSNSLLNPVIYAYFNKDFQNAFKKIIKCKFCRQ
pIC50: −log10 of the molar value.
valueKind: pIC50

COc1ccc2[nH]cc(CCNC(=O)c3ccc(=O)oc3)c2c1 : 5.71
COc1ccc2[nH]cc(CCNC(=O)c3cc(=O)cco3)c2c1 : 5.71
COc1ccc2[nH]cc(CCNC(=O)c3cc(=O)cc(C(=O)O)o3)c2c1 : 5.99
COc1ccc2[nH]cc(CCNC(=O)c3cc(=O)c(OC)co3)c2c1 : 5.71

====

target: 5-HT1A receptor (Homo sapiens); construct: expressed in transfected cells; host or cells: CHO-K1; assay: Serotonin receptor binding, [3H] 8-OH-DPAT, CHO-K1 membranes
valueKind: IC50 (nM)

COc1ccc2[nH]cc(CCNC(=O)c3cc(=O)c(O)co3)c2c1 : 680

====

molecular target: MT-2 receptor (Homo sapiens); construct: expressed in transfected cells; host or cells: CHP-K1 (Chinese hamster ovary) cells (so in the source); experiment: 125I-melatonin binding in membranes of CHP-K1 cells, MT-2; conditions: 0.05 nM 125I-melatonin, 25° C., 4 hours; read-out: MT-2 receptor binding KI
Sequence (P49286 whole entry): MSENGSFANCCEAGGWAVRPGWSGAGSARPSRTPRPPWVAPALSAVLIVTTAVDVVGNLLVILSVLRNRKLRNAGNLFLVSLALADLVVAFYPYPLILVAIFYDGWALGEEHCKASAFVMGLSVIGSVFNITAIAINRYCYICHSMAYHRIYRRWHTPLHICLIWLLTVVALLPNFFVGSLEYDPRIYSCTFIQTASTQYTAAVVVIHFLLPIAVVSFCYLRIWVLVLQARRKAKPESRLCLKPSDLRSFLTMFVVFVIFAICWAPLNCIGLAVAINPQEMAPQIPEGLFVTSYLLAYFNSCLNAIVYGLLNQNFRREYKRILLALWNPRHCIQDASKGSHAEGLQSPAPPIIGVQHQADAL
pKi: −log10 of the molar value.
# binarize pKi: threshold 6 inclusive, high side condition met, low side condition not met

COc1ccc2[nH]cc(CCNC(=O)c3ccc(=O)oc3)c2c1 : condition met
COc1ccc2[nH]c(Br)c(CCNC(=O)c3ccc(=O)oc3)c2c1 : condition met
COc1ccc2[nH]cc(CCNC(=O)c3cccc(=O)o3)c2c1 : condition not met
COc1ccc2[nH]cc(CCNC(=O)c3cc(=O)cco3)c2c1 : condition met
COc1ccc2[nH]cc(CCNC(=O)c3cc(=O)c(OC)co3)c2c1 : condition met

====

molecular target: MT-1 receptor (Homo sapiens, UniProt P48039); construct: expressed in transfected cells; host or cells: CHP-K1 (Chinese hamster ovary) cells (so in the source); assay: 125I-melatonin binding in membranes of CHP-K1 cells, MT-1; details: 0.05 nM 125I-melatonin, 25° C., 3 hours; read-out: MT-1 receptor binding KI
Sequence (P48039 whole entry): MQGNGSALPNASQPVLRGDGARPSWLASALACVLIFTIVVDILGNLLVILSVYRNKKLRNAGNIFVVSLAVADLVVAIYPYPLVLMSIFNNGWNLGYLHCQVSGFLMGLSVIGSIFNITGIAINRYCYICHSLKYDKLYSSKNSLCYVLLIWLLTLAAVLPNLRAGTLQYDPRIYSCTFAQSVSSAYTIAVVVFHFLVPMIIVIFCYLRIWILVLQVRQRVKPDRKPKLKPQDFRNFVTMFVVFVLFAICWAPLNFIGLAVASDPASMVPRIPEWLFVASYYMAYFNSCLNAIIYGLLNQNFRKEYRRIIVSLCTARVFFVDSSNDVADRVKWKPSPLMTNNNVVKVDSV
pKi: −log10 of the molar value.
# binarize pKi: threshold 6 inclusive, high side 1.0, low side 0.0

COc1ccc2[nH]cc(CCNC(=O)c3ccc(=O)oc3)c2c1 : 1.0
COc1ccc2[nH]cc(CCNC(=O)c3cc(=O)cco3)c2c1 : 1.0
COc1ccc2[nH]cc(CCNC(=O)c3cccc(=O)o3)c2c1 : 0.0

====

biological target: 5-HT2C receptor (Homo sapiens); construct: expressed in transfected cells; host or cells: CHO-K1; assay: Serotonin receptor binding, [3H] Mesulergine, CHO-K1 membranes; conditions: read-out: 5-HT2C KI
Sequence (P28335 33-458): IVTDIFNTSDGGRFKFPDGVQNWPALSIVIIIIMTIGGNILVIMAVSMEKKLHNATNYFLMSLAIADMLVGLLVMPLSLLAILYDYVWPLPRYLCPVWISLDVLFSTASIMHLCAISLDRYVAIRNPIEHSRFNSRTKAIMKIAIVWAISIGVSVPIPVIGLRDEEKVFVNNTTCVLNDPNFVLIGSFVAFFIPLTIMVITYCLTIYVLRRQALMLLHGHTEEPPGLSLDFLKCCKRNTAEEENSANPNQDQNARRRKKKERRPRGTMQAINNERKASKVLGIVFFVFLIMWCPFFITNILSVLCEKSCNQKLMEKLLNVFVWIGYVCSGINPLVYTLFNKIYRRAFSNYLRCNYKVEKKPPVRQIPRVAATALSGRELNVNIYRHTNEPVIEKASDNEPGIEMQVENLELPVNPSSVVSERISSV
valueKind: Ki

COc1ccc2[nH]cc(CCNC(=O)c3cc(=O)cc(C(=O)O)o3)c2c1 : 5.8 µM

====

Target: MT-3 receptor (Mesocricetus auratus, UniProt A0ABM2YAB8)
Construct: from tissue; host or cells: hamster brain membranes
Sequence (A0ABM2YAB8 1-231): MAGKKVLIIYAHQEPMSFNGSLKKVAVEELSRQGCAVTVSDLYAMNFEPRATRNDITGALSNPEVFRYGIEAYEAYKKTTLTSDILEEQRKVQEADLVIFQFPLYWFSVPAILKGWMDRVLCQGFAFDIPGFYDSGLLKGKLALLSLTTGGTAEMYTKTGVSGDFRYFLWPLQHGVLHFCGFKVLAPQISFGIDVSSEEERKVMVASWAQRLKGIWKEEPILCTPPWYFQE
Assay: 125I-melatonin binding in hamster brain membranes, MT-3
Conditions: 0.1 nM 125I-melatonin, 30 min; read-out: MT-3 receptor binding KI
pKi: −log10 of the molar value.
Quick reference for pKi among some compounds
valueKind: pKi

COc1ccc2[nH]cc(CCNC(=O)c3cc(=O)cc(C(=O)O)o3)c2c1 : 5.66
COc1ccc2[nH]cc(CCNC(=O)c3cc(=O)cco3)c2c1 : 6.52
COc1ccc2[nH]cc(CCNC(=O)c3ccc(=O)oc3)c2c1 : 6.02
COc1ccc2[nH]cc(CCNC(C)=O)c2c1 [Melatonin, N-acetyl-5-methoxy-tryptamine, reference compound] : 7.34
COc1ccc2[nH]cc(CCNC(=O)c3cc(=O)c(OC)co3)c2c1 : 6.66

Value source: patent US9101613B2
